- Target or system: Cynomolgus monkey CD1a expressed on HEK-293 cells (Cynomolgus monkey)
- Test method notes: flow, HEK-293, Ab 0.1 µg/ml
Measured parameter: Fluorescence Intensity Geomean (normalized to background) (fold over background)
Enter a number only.

As a guide, the following entries are already answered.
{"columns": ["Binder", "Measured result"],
 "data": [
  ["116 (VR12117) (antibody, V domains shown, also called OX116) VH: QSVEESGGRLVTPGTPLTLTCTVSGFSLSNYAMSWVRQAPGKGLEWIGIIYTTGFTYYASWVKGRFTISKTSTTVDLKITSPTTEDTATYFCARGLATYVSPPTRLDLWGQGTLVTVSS VL: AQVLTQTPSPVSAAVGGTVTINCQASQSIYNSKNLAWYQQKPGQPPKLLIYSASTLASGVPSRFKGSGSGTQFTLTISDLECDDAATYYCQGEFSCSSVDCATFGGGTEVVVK", 1],
  ["110 (VR12112) (antibody, V domains shown, V regions were 'cloned as either rabbit or mouse full length antibodies'; also called OX110; antibody 110) VH: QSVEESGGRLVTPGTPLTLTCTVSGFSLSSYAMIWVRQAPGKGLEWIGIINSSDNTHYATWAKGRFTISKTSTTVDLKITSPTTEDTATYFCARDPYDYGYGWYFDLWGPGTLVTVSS VL: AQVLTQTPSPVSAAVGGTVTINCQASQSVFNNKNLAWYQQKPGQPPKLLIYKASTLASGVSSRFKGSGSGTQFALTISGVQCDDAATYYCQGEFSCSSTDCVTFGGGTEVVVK", 3.3],
  ["77A (VR11851) (antibody, V domains shown, V regions were 'cloned as either rabbit or mouse full length antibodies'; also called OX77a; antibody 77a) VH: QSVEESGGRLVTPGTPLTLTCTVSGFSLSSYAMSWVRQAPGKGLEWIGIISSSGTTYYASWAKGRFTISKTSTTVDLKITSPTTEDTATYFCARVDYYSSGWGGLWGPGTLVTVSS VL: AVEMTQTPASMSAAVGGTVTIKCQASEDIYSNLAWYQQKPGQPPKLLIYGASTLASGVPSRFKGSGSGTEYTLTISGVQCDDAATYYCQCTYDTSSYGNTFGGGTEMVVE", 5.7]
]}

Proceeding to the next binder to report its Fluorescence Intensity Geomean (normalized to background) (fold over background).
Kindly indicate its recorded Fluorescence Intensity Geomean (normalized to background) (fold over background). Item: 111 (VR12113) (antibody, V domains shown, also called OX111) VH: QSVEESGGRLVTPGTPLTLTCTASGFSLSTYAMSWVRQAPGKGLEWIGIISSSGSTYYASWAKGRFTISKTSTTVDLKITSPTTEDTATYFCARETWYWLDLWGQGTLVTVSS VL: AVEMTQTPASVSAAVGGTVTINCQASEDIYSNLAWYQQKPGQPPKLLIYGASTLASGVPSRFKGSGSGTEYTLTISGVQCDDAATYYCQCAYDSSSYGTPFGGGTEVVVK
25.8
